Test: chemical genetic growth profiling, strain panel (AID 1159580);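 further: tested at 20 µM; growth read once vehicle control cultures reached saturation at 30 °C; 1 = growth at the plate median or of vehicle wells; lower values mean less growth of the strain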
Conditions: S. cerevisiae deletion strains, growth OD, locus YGL227W, strain vid30
The campaign covered roughly 5,500 compounds. About 2,000 (36%) were called active. About 18% were inconclusive and are not listed. No stated cut-off is given here; in the data, active means normalized growth mostly below about 0.91 (no sharp cut-off); inconclusive means no clear call, values can overlap the other calls; inactive means mostly above about 0.92. This is one part of the list.
Classes to choose from: label 1 (active), label 0 (inactive)

Some entries whose results are on file:
Exercise: What did this assay record as the result for NC[C@@H]1O[C@H](O[C@@H]2[C@@H](CO)OC(O[C@@H]3[C@@H](O)[C@H](N)C[C@H](N)[C@H]3OC3O[C@H](CN)[C@@H](O)[C@H](O)[C@H]3N)[C@@H]2O)[C@H](N)[C@@H](O)[C@@H]1O (stereo partly drawn) ?
Solution: label 0

Exercise: What did this assay record as the result for CC(C)(C)CC(C)(C)c1ccc(OCCOCC[N+](C)(C)Cc2ccccc2)cc1 ?
Solution: label 1

Exercise: What did this assay record as the result for CC1(C)C2CC[C@]3(C)C(C(=O)C=C4[C@@H]5C[C@@](C)(C(=O)O)CC[C@]5(C)CC[C@]43C)[C@@]2(C)CC[C@@H]1OC(=O)CCC(=O)O (stereo partly drawn) ?
Solution: label 0

Exercise: What did this assay record as the result for C=CC1=C(C(=O)O)N2C(=O)[C@@H](NC(=O)/C(=N/O)c3csc(N)n3)[C@H]2SC1 ?
Solution: label 0

Exercise: What did this assay record as the result for O=C1CC(c2ccc(O)c(O)c2)Oc2cc(O)cc(O)c21 (stereo not drawn) ?
Solution: label 0

Exercise: What did this assay record as the result for CN=C(NC#N)NCCSCc1nc[nH]c1C ?
Solution: label 0

Exercise: What did this assay record as the result for CCCCCCCCCCCCC[N+](C)(C)Cc1ccccc1 ?
Solution: label 1

Continuing:
Exercise: What did this assay record as the result for CC1(C)C2CC[C@]3(C)C(C(=O)C=C4[C@@H]5C[C@@](C)(C(=O)O)CC[C@]5(C)CC[C@]43C)[C@@]2(C)CC[C@@H]1O (stereo partly drawn) ?
Solution: label 0

* * *

Assign normalized growth to each entry below.
Experiment: chemical genetic growth profiling, strain panel (AID 1159580)
Details: S. cerevisiae deletion strains, growth OD, locus YNL209W, strain ssb2, active compounds read low
Hit rate of the full screen: of about 5,500 compounds, about 2,000 (36%) were called active. About 18% were inconclusive and are not listed. The list shows a part of the results.

Exercise: Would you mind telling me what normalized growth value was observed for Cc1cccc(Nc2cc(Cl)nc(SCC(=O)O)n2)c1C ?
Solution: 0.993 (inactive)

Exercise: Would you mind telling me what normalized growth value was observed for COC1C(O)C(O)C(O)[C@@H](O)C1O (stereo partly specified) ?
Solution: 0.987 (inactive)

Exercise: Would you mind telling me what normalized growth value was observed for COc1c(O)cc2oc3cc(O)c(CC=C(C)C)c(O)c3c(=O)c2c1CC=C(C)C ?
Solution: 0.968 (inactive)

Exercise: Would you mind telling me what normalized growth value was observed for CNC1(C)C2CCC(C2)C1(C)C (stereo unspecified) ?
Solution: 0.992 (inactive)

Exercise: Would you mind telling me what normalized growth value was observed for COc1ccc2c(c1)OC[C@@H](Cc1ccc(OC)c(OC)c1)[C@H]2O ?
Solution: 1.02 (inactive)

Parameter requested: normalized growth. Apply to each item below.
1. COc1cc(OC)c2c(c1)O[C@H](c1ccc(OC)c(OC)c1)[C@@H](O)C2
2. CC(=O)[C@H]1CCC2C3C[C@H](C)C4=CC(=O)CC[C@]4(C)C3[C@@H](O)C[C@@]21C (stereo partly specified)
3. CC(C)[N+](C)(CCOC(=O)C1c2ccccc2Oc2ccccc21)C(C)C
4. COc1ccc2c(c1)OC[C@@H](Cc1ccc(OC)c(OC)c1)[C@@H]2O
5. NC(N)=NOCC[C@H](N)C(=O)O
6. CC(C)[C@H](N)C(=O)OCCOCn1cnc2c(=O)[nH]c(N)nc21

Solution:
1. 1.01 (inactive)
2. 0.994 (inactive)
3. 1.01 (inactive)
4. 1.01 (inactive)
5. 1 (inactive)
6. 1.02 (inactive)

* * *

Test: chemical genetic growth profiling, strain panel (AID 1159580);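 further: tested at 20 µM; growth read once vehicle control cultures reached saturation at 30 °C; 1 = growth at the plate median or of vehicle wells; lower values mean less growth of the strain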
Details: S. cerevisiae deletion strains, growth OD, locus YBL105C, strain PKC1, active compounds read low
About 2,000 (36%) of roughly 5,500 compounds were called active. Another 18% or so got no clear call; they are omitted. This is one part of the list.
MEASUREMENT_KIND: normalized growth
One number for each entry.

Exercise: Would you mind telling me what normalized growth value was observed for O=C(NCc1ccco1)c1ccc(Oc2cc(Cl)cc(Cl)c2)o1 ?
Solution: 0.96

Exercise: Would you mind telling me what normalized growth value was observed for Cn1c([N+](=O)[O-])cnc1/C=C(\C#N)C(=O)Nc1ccc(F)cc1 ?
Solution: 0.368

Exercise: Would you mind telling me what normalized growth value was observed for S=C(Nc1cc(-c2cccs2)[nH]n1)Nc1ccccc1Cl ?
Solution: 0.938

Parameter requested: normalized growth. Apply to each item below.
1. O=C(C=C(O)c1ccc(Br)cc1)C(=O)Nc1ccccc1
2. O=C(Oc1cc(Cl)c(Cl)cc1Cl)C1c2ccccc2Oc2ccccc21
3. O=C(CCN1CCCCC1)c1ccc(-c2ccccc2)cc1
4. CC(C)(C)C1=NN(c2nc3ccc(Cl)cc3s2)C(=O)C1
5. Cc1oc2c(F)c(F)c(F)c(F)c2c1C(=O)ONC(N)c1ccc(OS(=O)(=O)N(C)C)cc1 (stereo unspecified)
6. Cc1c(Cl)cccc1NC(=S)N1CCCN(c2ccc(C(F)(F)F)cc2[N+](=O)[O-])CC1
7. Cc1cc(SCc2[nH]nc3oc(=O)cc(C)c23)c(Cl)cc1Cl
8. Cn1cncc1S(=O)(=O)/C(C#N)=C/c1ccccc1Sc1ccc(Cl)cc1

Solution:
1: 0.637; 2: 0.943; 3: 0.975; 4: 0.0905; 5: 0.963; 6: 0.979; 7: 0.993; 8: 0.973

Parameter requested: normalized growth. Apply to each item below.
1. NC(N)=Nc1nc(-c2cc(Cl)sc2Cl)cs1
2. N#C/C(=C\c1ccccc1Sc1ccc(Cl)cc1)S(=O)(=O)c1ccccn1
3. CCC(C)c1ccccc1NC(=O)c1cc2cccc([N+](=O)[O-])c2[nH]1 (stereo unspecified)
4. O=C(Nc1c(Br)c(C2CC2)nn1-c1ccccc1)C(Cl)(Cl)Cl
5. C=CC(=O)N1CCc2cc([N+](=O)[O-])ccc21

Solution:
[0.998, 0.968, 0.914, 0.913, 0.778]

* * *

Experiment: chemical genetic growth profiling, strain panel (AID 1159580);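 further: tested at 20 µM; growth read once vehicle control cultures reached saturation at 30 °C; 1 = growth at the plate median or of vehicle wells; lower values mean less growth of the strain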
Conditions: S. cerevisiae deletion strains, growth OD, locus YHR087W, strain rtc3, active compounds read low
Among all 5,500 compounds or so, about 2,000 (36%) were called active. Roughly 18% stayed inconclusive and do not appear here. The list shows a part of the results.
MEASUREMENT_KIND: normalized growth
Numbers only.

Exercise: Would you mind telling me what normalized growth value was observed for Cc1cc(=O)n2c(-c3ccc(Cl)cc3)csc2n1 ?
Solution: 0.927

Exercise: Would you mind telling me what normalized growth value was observed for NC1=C(c2ccccc2)C(=O)NC1=O ?
Solution: 0.988

Exercise: Would you mind telling me what normalized growth value was observed for COC(=O)c1cc(OC)c(OC)c(OC)c1NS(=O)(=O)c1cc(OC)ccc1OC ?
Solution: 1.03

Parameter requested: normalized growth. Apply to each item below.
1. O=C(O)CSCC(=O)N1CCc2c([nH]c3ccccc23)C1C(F)(F)F (centres undefined)
2. COc1ccc(S(=O)(=O)Nc2cc(C)c(C)cc2[N+](=O)[O-])c(OC)c1
3. CN1C/C(=C\c2ccccc2Cl)C(=O)/C(=C/c2ccccc2Cl)C1
4. Cc1nn(-c2ccccc2)nc1C(=O)NC(=O)N1CCCC1
5. Cc1cc(C)c2c(-n3cccc3)c(C(=O)c3ccc(Cl)cc3)sc2n1
6. Cc1cc(NC(=O)C(Cl)(Cl)Cl)n(-c2ccccc2)n1

Solution:
1. 1
2. 1
3. 0.888
4. 1.03
5. 0.98
6. 0.97

Parameter requested: normalized growth. Apply to each item below.
1. CC(=O)/C(=C\Nc1ncccn1)S(=O)(=O)c1ccc(Cl)cc1
2. CCCCCCCc1c(O)c2ccccc2[nH]c1=O
3. CN1C(=O)CN=C(c2ccccc2)c2ccccc21
4. O=C(c1ccccc1)C1CCN(c2ccc(C(F)(F)F)cc2[N+](=O)[O-])CC1
5. CC(=O)OCc1ccc(/C=C(\C#N)S(=O)(=O)c2ccc(Cl)cc2)o1

Solution:
[0.98, 1, 0.995, 0.98, 0.983]

* * *

Assay: chemical genetic growth profiling, strain panel (AID 1159580);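 further: tested at 20 µM; growth read once vehicle control cultures reached saturation at 30 °C; 1 = growth at the plate median or of vehicle wells; lower values mean less growth of the strain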
Conditions: S. cerevisiae deletion strains, growth OD, locus YHR079C, strain IRE1 (second series), active compounds read low
Screen size: about 5,500 compounds; about 2,000 (36%) were called active. About 18% were inconclusive and are not listed. The list shows a part of the results.
MEASUREMENT_KIND: normalized growth
Answers are plain numbers.

Exercise: Would you mind telling me what normalized growth value was observed for COc1ccc2c(c1)OC[C@@H](Cc1ccc(OC)c(OC)c1)[C@@H]2O ?
Solution: 0.981

Exercise: Would you mind telling me what normalized growth value was observed for O=[N+]([O-])O[C@H]1CO[C@H]2[C@@H]1OC[C@H]2O[N+](=O)[O-] ?
Solution: 1.02

Exercise: Would you mind telling me what normalized growth value was observed for COc1cc(OC)c2c(c1)O[C@H](c1ccc(OC)c(OC)c1)[C@@H](O)C2 ?
Solution: 1.02

Exercise: Would you mind telling me what normalized growth value was observed for COc1ccc2c(c1)OC[C@@H](Cc1ccc(OC)c(OC)c1)[C@H]2O ?
Solution: 0.979

Exercise: Would you mind telling me what normalized growth value was observed for CCc1nc(N)nc(N)c1-c1ccc(Cl)cc1 ?
Solution: 0.987

Parameter requested: normalized growth. Apply to each item below.
1. CC[C@@H](CO)NCCN[C@@H](CC)CO
2. CCc1cccc(C)c1N(C(=O)CCl)C(C)COC (stereo not drawn)
3. CN1Cc2c(ccc3c2OCO3)C2C(O)Cc3cc4c(cc3C21)OCO4 (stereo not drawn)

Solution:
0.987
1.02
1.01

Parameter requested: normalized growth. Apply to each item below.
1. COc1cc(OC)c2c(c1)OC(c1ccc(OC)c(OC)c1)C(O)C2 (stereo not drawn)
2. CN1CCc2cc3c(cc2C1O)OCO3 (stereo not drawn)
3. CC1(C)C2CC[C@]3(C)C(C(=O)C=C4[C@H]5C[C@@](C)(C(=O)O)CC[C@]5(C)CC[C@]43C)[C@@]2(C)CC[C@@H]1O (stereo partly drawn)
4. COC(=O)COc1cc(Cl)c(Cl)cc1Cl
5. NC(=O)c1ncn([C@@H]2O[C@H](CO)[C@@H](O)[C@H]2O)c1O

Solution:
[1.02, 0.978, 1, 0.953, 1.02]
